B1: EPB41L3 (parent)
chain: KKFLTLGSKFRYSGRTQAQTRRAS

- Variants of: B1
- ASSAY_NOTES: protein stability index of a GFP-peptide fusion (GPS, HEK-293T) (PSI 1-6); higher = more stable;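 note: lentivirally expressed fusions sorted by FACS into six bins by GFP to DsRed ratio, PSI derived from sequencing read proportions per bin multiplied by bin number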
- SETUP_CONDITIONS: c terminus: a fixed tail appended
Assign 1 (yes) whenever protein stability index does not fall below 3; assign 0 (no) whenever it does.

>  <MUTANT_LABEL>
R21S

>  <LABEL>
1 (yes)

$$$$
>  <MUTANT_LABEL>
R21A

>  <LABEL>
0 (no)

$$$$
>  <MUTANT_LABEL>
K2P

>  <LABEL>
0 (no)

$$$$
>  <MUTANT_LABEL>
F10D

>  <LABEL>
1 (yes)

$$$$
>  <MUTANT_LABEL>
F3K

>  <LABEL>
1 (yes)

$$$$
>  <MUTANT_LABEL>
K9N

>  <LABEL>
0 (no)

$$$$
>  <MUTANT_LABEL>
K2L

>  <LABEL>
0 (no)

$$$$
>  <MUTANT_LABEL>
T20D

>  <LABEL>
0 (no)

$$$$
>  <MUTANT_LABEL>
L6I

>  <LABEL>
0 (no)

$$$$
>  <MUTANT_LABEL>
K1H

>  <LABEL>
0 (no)

$$$$
>  <MUTANT_LABEL>
T5N

>  <LABEL>
1 (yes)

$$$$
>  <MUTANT_LABEL>
K2S

>  <LABEL>
0 (no)

$$$$
>  <MUTANT_LABEL>
K2R

>  <LABEL>
1 (yes)

$$$$
>  <MUTANT_LABEL>
G14I

>  <LABEL>
0 (no)

$$$$
>  <MUTANT_LABEL>
L4R

>  <LABEL>
1 (yes)

$$$$
>  <MUTANT_LABEL>
T20V

>  <LABEL>
1 (yes)

$$$$
>  <MUTANT_LABEL>
Y12M

>  <LABEL>
1 (yes)

$$$$
>  <MUTANT_LABEL>
K1S

>  <LABEL>
0 (no)

$$$$
>  <MUTANT_LABEL>
G14P

>  <LABEL>
1 (yes)

$$$$
>  <MUTANT_LABEL>
L6E

>  <LABEL>
1 (yes)

$$$$
>  <MUTANT_LABEL>
K9Y

>  <LABEL>
0 (no)

$$$$
>  <MUTANT_LABEL>
K2W

>  <LABEL>
0 (no)

$$$$
>  <MUTANT_LABEL>
T5Y

>  <LABEL>
0 (no)

$$$$
>  <MUTANT_LABEL>
L6D

>  <LABEL>
1 (yes)

$$$$
>  <MUTANT_LABEL>
G7P

>  <LABEL>
1 (yes)

$$$$
>  <MUTANT_LABEL>
T20R

>  <LABEL>
1 (yes)

$$$$
>  <MUTANT_LABEL>
R15H

>  <LABEL>
1 (yes)

$$$$
>  <MUTANT_LABEL>
L4Q

>  <LABEL>
0 (no)

$$$$
>  <MUTANT_LABEL>
Q17A

>  <LABEL>
0 (no)

$$$$
>  <MUTANT_LABEL>
R15W

>  <LABEL>
0 (no)

$$$$
>  <MUTANT_LABEL>
G7T

>  <LABEL>
1 (yes)

$$$$
>  <MUTANT_LABEL>
R21I

>  <LABEL>
0 (no)

$$$$
>  <MUTANT_LABEL>
S24N

>  <LABEL>
0 (no)

$$$$
>  <MUTANT_LABEL>
F10I

>  <LABEL>
1 (yes)

$$$$
>  <MUTANT_LABEL>
T20C

>  <LABEL>
1 (yes)

$$$$
>  <MUTANT_LABEL>
R21M

>  <LABEL>
0 (no)

$$$$
>  <MUTANT_LABEL>
T16A

>  <LABEL>
0 (no)

$$$$
>  <MUTANT_LABEL>
K1Y

>  <LABEL>
0 (no)

$$$$
>  <MUTANT_LABEL>
R22E

>  <LABEL>
0 (no)

$$$$
>  <MUTANT_LABEL>
A18M

>  <LABEL>
0 (no)

$$$$
>  <MUTANT_LABEL>
G14K

>  <LABEL>
1 (yes)

$$$$
>  <MUTANT_LABEL>
K1P

>  <LABEL>
0 (no)

$$$$
